system: L1210 leukemia ip in BDF1 mice, survival T/C; assay: NCI In Vivo Anticancer Drug Screen. Data for tumor model L1210 Leukemia (intraperitoneal) in B6D2F1 (BDF1) mice; settings: endpoint: mean survival time; dose: 75.0 mg/kg/injection; schedule: Q01DX001 (ip); vehicle: other; higher = longer survival
Inconclusive results and toxic doses are left out.
The reader will find reported T/C values listed item by item below.

Sample records with T/C:
Cc1cccc2c1N=C(C(F)(F)F)CC2=O	100 % of control
Cc1[nH]nc(-c2cccnc2)c1N=NN1CCC(C(N)=O)CC1	103 % of control
CCCCCC(C)n1c(C)cc(=O)n1C(C)CCCCC (centres undefined)	92 % of control

Could you now look at the following molecule, please?
T/C for CCN(CC)CCN1C(=O)C(C)C=C(C)C=C1C (centres undefined) is 100 % of control

* * *

system: L1210 leukemia ip in BDF1 mice, survival T/C; test: NCI In Vivo Anticancer Drug Screen. Data for tumor model L1210 Leukemia (intraperitoneal) in B6D2F1 (BDF1) mice; conditions: endpoint: mean survival time; dose: 100.0 mg/kg/injection; schedule: Q01DX001 (ip); vehicle: saline; higher = longer survival
Toxic doses and inconclusive results are not listed.
The reader will find reported T/C values listed item by item below.

Sample records with T/C:
CCN(CC)CCCNc1ccnc2cc(Cl)ccc12	94 % of control
O=C(Cc1cccc([N+](=O)[O-])c1)Nc1ccc(S(=O)(=O)F)cc1	112 % of control
CCOC(=O)CC(N)CC(=O)OCC	104 % of control
O=C(O)c1csnn1	102 % of control

T/C for `CC/C(=C/c1ccc2c(c1)OCO2)[N+](=O)[O-]` is 100 % of control

T/C for CC1OC(n2cnc3c(=S)nc[nH]c32)C(O)C1O (stereo unspecified) is 96 % of control

T/C for `CC1=Nc2ccccc2/C1=C\c1c(C)[nH]c2ccccc12` is 96 % of control

T/C for `Nc1ccc(S(=O)(=O)NS(=O)(=O)c2ccccc2)cc1` is 95 % of control

T/C for `O=S1(=O)C=Cc2ccccc21` is 106 % of control

T/C for `Cc1ccc(C)c2c1c1ccccc1n2N=O` is 100 % of control

T/C for CC1=CC(=O)OC2(C1)CC1CCC2CN1C (stereo unspecified) is 101 % of control

T/C for `COc1ccc(/C=C2\CSC(=O)NC2=O)cc1OC` is 104 % of control

T/C for `O=[N+]([O-])c1cc(Cl)ccc1S(=O)(=O)/C=C/c1ccccc1` is 104 % of control

T/C for CC(=O)OC1CCCc2c(O)c3c(c(O)c21)C(=O)c1ccccc1C3=O (stereo unspecified) is 93 % of control

T/C for `CCN(CC)CCNc1ccc(C)c2sc3ccccc3c(=O)c12` is 104 % of control

T/C for `COc1ccccc1/C=C(\SS/C(=C/c1ccccc1OC)C(=O)O)C(=O)O` is 120 % of control

T/C for `CCN(CC)CCSSCCN(CC)CC` is 96 % of control

T/C for C#CC(C)(O)CC(C)C (stereo unspecified) is 100 % of control

T/C for `N=C(CC(=O)Nc1ccccc1)c1ccccc1` is 96 % of control

T/C for CCOC(=O)N1C(C(=O)c2ccccc2)N(Cc2ccccc2)C(c2ccccc2)N1C(=O)OCC (stereo unspecified) is 97 % of control

* * *

test system: L1210 leukemia ip in BDF1 mice, survival T/C; assay: NCI In Vivo Anticancer Drug Screen. Data for tumor model L1210 Leukemia (intraperitoneal) in B6D2F1 (BDF1) mice; conditions: endpoint: mean survival time; dose: 25.0 mg/kg/injection; schedule: Q04DX003 (ip); vehicle: saline; higher = longer survival
Toxic doses and inconclusive results are not listed.
property: T/C

O=c1[nH]cc(F)c(=O)n1C1OC(CO)C(O)C1O (stereo not drawn)	105 % of control
CC(N)Cc1ccccc1 (stereo not drawn)	100 % of control
CNc1n[n+](-c2ccccc2)no1	111 % of control
CC#CCOCC1CNC(=O)O1 (stereo not drawn)	105 % of control
CCN(CC)CC(=O)NCC(CCN1CCCCC1)(Cc1cccc2ccccc12)C(C)C (stereo not drawn)	98 % of control
O=C(O)/C=C/C(=O)Nc1ccc2c(c1)Cc1cc(NC(=O)C(F)(F)F)ccc1-2	102 % of control
COC(=O)c1c2ccccc2[n+](C)c2ccccc12	100 % of control
O=C(CCl)C1C(O)=[N+](c2ccccc2)C2C=CC=CN12 (stereo not drawn)	92 % of control
CCOP(=O)(/N=C1/C2CCC(C2)C1C)OCC (stereo not drawn)	105 % of control
CCC(C)C(C(=O)OC1CCN(C)CC1)c1ccccc1 (stereo not drawn)	102 % of control

T/C for CCC(C)C(CCN1CCCCC1)(CNC(=O)CN(CC)CC)Cc1cccc2ccccc12 (stereo not drawn) is 103 % of control

T/C for `CC(C)(c1ccccc1)[N+](C)(C)C` is 91 % of control

T/C for `CCOC(=O)c1cnc(SCc2ccccc2Cl)nc1N1CC1` is 101 % of control

* * *

system: L1210 leukemia ip in BDF1 mice, survival T/C; test: NCI In Vivo Anticancer Drug Screen. Data for tumor model L1210 Leukemia (intraperitoneal) in B6D2F1 (BDF1) mice; details: endpoint: mean survival time; dose: 400.0 mg/kg/injection; schedule: Q01DX009 (ip); vehicle: Klucel (hydroxypropylcellulose) (HPC); higher = longer survival
Toxic doses and inconclusive results are not listed.
The reader will find reported T/C values listed item by item below.

CCC(C#N)c1ccccc1 (stereo not given)	103 % of control
N#CC1(Nc2cccc(C(F)(F)F)c2)CCCCC1	100 % of control
CN1C(=O)C2C3C=CC(C3)C2C1=O (stereo not given)	96 % of control
Cc1cc(C)c(NC(=O)Nc2ccc(Cl)cc2)c(C)c1	96 % of control

T/C for `COC(=O)c1ccc(OCCOc2ccc(C(C)(C)CC(C)(C)C)cc2)c(N)c1` is 91 % of control

T/C for `N#CCCN1c2ccccc2Sc2ccc(Cl)cc21` is 98 % of control

T/C for `O=C(Nc1ccc(CCO)cc1)Nc1cccc(F)c1` is 88 % of control

T/C for `CCc1ccc(Nc2c([N+](=O)[O-])cc(C)cc2[N+](=O)[O-])cc1` is 113 % of control

T/C for `COc1ccccc1NC(=O)c1ccccc1F` is 101 % of control

T/C for `O=C1O/C(=C(\C(=O)O)c2ccccc2)C(O)=C1c1ccccc1` is 102 % of control

T/C for `CCCCCCCCOc1ccc(C=Nc2ccc(CC)cc2)cc1` is 91 % of control

* * *

tested on: L1210 leukemia ip in BDF1 mice, survival T/C; test: NCI In Vivo Anticancer Drug Screen. Data for tumor model L1210 Leukemia (intraperitoneal) in B6D2F1 (BDF1) mice; settings: endpoint: mean survival time; dose: 400.0 mg/kg/injection; schedule: Q01DX001 (ip); vehicle: carboxymethylcellulose (CMC); higher = longer survival
Toxic doses and inconclusive results are not listed.
property: T/C

CCOC(=S)Sc1ccc2c(c1)-c1ccc(F)cc1C2=O	98 % of control
C/C(=N/O)c1ccccc1NO	86 % of control
Nc1ccc(Cl)cc1	110 % of control
CC1(CCC#N)CCC(N)=CC1=O (configuration not stated)	96 % of control

Record for NC(CCSCc1ccc(N(CCCl)CCCl)cc1)C(=O)O (configuration not stated) under target or system L1210 leukemia ip in BDF1 mice, survival T/C: T/C reported as 113 % of control

Record for CCCCCC(=O)C(CCCC)C(=O)Nc1ccccc1 (configuration not stated) under target or system L1210 leukemia ip in BDF1 mice, survival T/C: T/C reported as 91 % of control

Record for `ClC(Cl)(Cl)C(N1CCN(c2ccccc2)CC1)N1CCN(c2ccccc2)CC1` under target or system L1210 leukemia ip in BDF1 mice, survival T/C: T/C reported as 89 % of control

Record for `Cc1cc(C)n2nc(N)nc2n1` under target or system L1210 leukemia ip in BDF1 mice, survival T/C: T/C reported as 95 % of control

Record for `O=c1[nH]c2cc(Cl)ccc2c2ccccc12` under target or system L1210 leukemia ip in BDF1 mice, survival T/C: T/C reported as 95 % of control

Record for `Nc1nc(N)nc(CCc2nc(N)nc(N)n2)n1` under target or system L1210 leukemia ip in BDF1 mice, survival T/C: T/C reported as 92 % of control

Record for O=C(O/C(=N\N1N=NC(c2ccccc2)C1c1ccccc1)c1ccccc1)c1ccccc1 (configuration not stated) under target or system L1210 leukemia ip in BDF1 mice, survival T/C: T/C reported as 89 % of control

Record for CC1COCC(C)N1CC(=O)Nc1ccc(S(=O)(=O)c2ccc(NC(=O)CN3C(C)COCC3C)cc2)cc1 (configuration not stated) under target or system L1210 leukemia ip in BDF1 mice, survival T/C: T/C reported as 95 % of control
